Values compiled from ChEMBL document CHEMBL4152355.

assay: Metal chelating activity assessed as inhibition of Cu2+ induced amyloid beta (1 to 40) aggregation by measuring decrease in ROS production at 2 equiv after 75 mins by fluorescence assay
EXPERIMENTAL READOUT: inhibition (%)
Form entry: value (%) — number only.

smiles_text=Oc1ccc(/C=N/CCn2ccc3ccccc32)c(O)c1 unit_abbrev=% value_reported=68.5

Reported inhibition of Oc1ccc(/C=N/CCn2ccc3cccnc32)c(O)c1 : 71.9

Per the records, this compound ( Cl.Oc1ccc(/C=N/CCNCCn2cnc3ccccc32)c(O)c1 ) has inhibition equal to 93.7

For reference, reported inhibition for O=C(NCCNc1ccnc2cc(Cl)ccc12)c1cnccn1 stands at 36.2

The compound listed as Cl.Nc1ncnc2c1ncn2CCNCC/N=C/c1ccc(O)cc1O shows inhibition equal to 97.5

Short answer for Oc1ccc(/C=C/c2cc(O)cc(O)c2)cc1 : inhibition was 9

Record Oc1ccccc1/C=N/CCNc1ccnc2cc(Cl)ccc12 , field inhibition: 57.9

----------
assay: Inhibition of Cu2+ induced amyloid beta (1 to 40) fibril aggregation assessed as fluorescence emission at 100 uM measured on day 7 by thioflavin-T based assay (reference value: 181.04 +/- 1.74)
Binary classification by Flu intensity, with 200 as an inclusive lower bound for 1 (yes); all other cases are 0 (no).

Challenge: State whether the measured Flu intensity reaches 200, counting equality as reaching it, for Cl.Nc1ncnc2c1ncn2CCNCC/N=C/c1ccc(O)cc1O
Response given: 0 (no)

----------
biological target: Amyloid-beta precursor protein (Homo sapiens); assay: Disaggregation of self-induced amyloid beta (1 to 40) (unknown origin) preformed fibrils assessed as fluorescence emission at 100 uM after 4 days by thioflavin-T based assay; set-up: reference not given here
// Flu intensity lookup, one value per entry
# output: bare number, no unit

Here are 3 molecules together with their reported answers.
smiles_text=Cl.Nc1ncnc2c1ncn2CCNCC/N=C/c1ccc(O)cc1O assayed_target="Amyloid-beta precursor protein (Homo sapiens)" value_reported=246
smiles_text=O=C(NCCNc1ccnc2cc(Cl)ccc12)c1cnccn1 assayed_target="Amyloid-beta precursor protein (Homo sapiens)" value_reported=289
smiles_text=Oc1ccc(/C=N/CCn2ccc3cccnc32)c(O)c1 assayed_target="Amyloid-beta precursor protein (Homo sapiens)" value_reported=226

Briefly, Flu intensity measured for Oc1ccccc1/C=N/CCNc1ccnc2cc(Cl)ccc12 : 262

Consider Oc1ccc(/C=N/CCn2ccc3ccccc32)c(O)c1 . Its measured Flu intensity is 213

Sure, the documented Flu intensity for Cl.Oc1ccc(/C=N/CCNCCn2cnc3ccccc32)c(O)c1 is 184

get_value(item= Oc1ccc(/C=C/c2cc(O)cc(O)c2)cc1 , readout=Flu intensity) returns 230

----------
Listing of recorded Flu intensity by entry.
experiment: Inhibition of Cu2+ induced amyloid beta (1 to 40) fibril aggregation assessed as fluorescence emission at 100 uM measured on day 3 by thioflavin-T based assay (reference value: 33.64 +/- 5.80)
A bare number is all that is needed in reply.

Here's what some known entries look like.
smiles_text=O=C(NCCNc1ccnc2cc(Cl)ccc12)c1cnccn1 experimental_readout="Flu intensity" value_reported=41.7
smiles_text=Cl.Oc1ccc(/C=N/CCNCCn2cnc3ccccc32)c(O)c1 experimental_readout="Flu intensity" value_reported=110
smiles_text=Oc1ccc(/C=N/CCn2ccc3cccnc32)c(O)c1 experimental_readout="Flu intensity" value_reported=227
smiles_text=Oc1ccccc1/C=N/CCNc1ccnc2cc(Cl)ccc12 experimental_readout="Flu intensity" value_reported=138
smiles_text=Cl.Nc1ncnc2c1ncn2CCNCC/N=C/c1ccc(O)cc1O experimental_readout="Flu intensity" value_reported=100
smiles_text=Oc1ccc(/C=N/CCn2ccc3ccccc32)c(O)c1 experimental_readout="Flu intensity" value_reported=243

Consider the record given below.
So, Oc1ccc(/C=C/c2cc(O)cc(O)c2)cc1 ? Its Flu intensity was 74.7

----------
In this section we review reported fold change (FC) values for a set of molecules.
system: Tetrahymena thermophila; test: Toxicity in Tetrahymena thermophila assessed as decrease in viability after 48 hrs by MTT assay relative to resveratrol; assay type: organism-based; settings: in vivo
Answer with the value's number alone.

Answered cases to consult:
smiles_text=Oc1ccc(/C=N/CCn2ccc3cccnc32)c(O)c1 experimental_readout="fold change (FC)" value_reported=2.5
smiles_text=Cl.Nc1ncnc2c1ncn2CCNCC/N=C/c1ccc(O)cc1O experimental_readout="fold change (FC)" value_reported=3.4
smiles_text=Oc1ccc(/C=N/CCn2ccc3ccccc32)c(O)c1 experimental_readout="fold change (FC)" value_reported=2.3

Proceeding to the next molecule to report its fold change (FC).
Item: Cl.Oc1ccc(/C=N/CCNCCn2cnc3ccccc32)c(O)c1 | fold change (FC): 2.2

----------
A collection of compounds and their measured CC50 at 48 h
experiment: Cytotoxicity against human HEK293 cells assessed as decrease in cell viability after 48 hrs by MTT assay; assay type: cell-based; conditions: read-out: LD50
Please state the figure in µM; there is no need to write the unit.

Use these answered entries as a reference point.
smiles_text=Oc1ccc(/C=N/CCn2ccc3ccccc32)c(O)c1 experimental_readout="CC50 at 48 h" value_reported=193
smiles_text=Cl.Nc1ncnc2c1ncn2CCNCC/N=C/c1ccc(O)cc1O experimental_readout="CC50 at 48 h" value_reported=336
smiles_text=Oc1ccc(/C=C/c2cc(O)cc(O)c2)cc1 experimental_readout="CC50 at 48 h" value_reported=71.3

For reference, reported CC50 at 48 h for Oc1ccccc1/C=N/CCNc1ccnc2cc(Cl)ccc12 stands at 113

Form field CC50 at 48 h, entry Cl.Oc1ccc(/C=N/CCNCCn2cnc3ccccc32)c(O)c1 : 184

// recorded CC50 at 48 h for Oc1ccc(/C=N/CCn2ccc3cccnc32)c(O)c1 : 280

// recorded CC50 at 48 h for O=C(NCCNc1ccnc2cc(Cl)ccc12)c1cnccn1 : 113

----------
target: UniProt:P05067; assay: Inhibition of self-induced amyloid beta (1 to 40) (unknown origin) fibril aggregation assessed as fluorescence emission at 100 uM measured on day 10 by thioflavin-T based assay; design: reference not given here
// label = true (1) if Flu intensity is not less than 300, otherwise false (0)

Some solved cases for reference:
smiles_text=Oc1ccc(/C=C/c2cc(O)cc(O)c2)cc1 discrete_label="false (0)"
smiles_text=Oc1ccccc1/C=N/CCNc1ccnc2cc(Cl)ccc12 discrete_label="false (0)"

Challenge: Please check the record O=C(NCCNc1ccnc2cc(Cl)ccc12)c1cnccn1 and state if its Flu intensity is at or above 300.
Response given: true (1)

Challenge: In plain terms: is recorded Flu intensity at least 300 for Cl.Oc1ccc(/C=N/CCNCCn2cnc3ccccc32)c(O)c1 ?
Response given: false (0)

Challenge: # check: Flu intensity of Oc1ccc(/C=N/CCn2ccc3cccnc32)c(O)c1 is greater than or equal to 300
Response given: true (1)

Challenge: For this compound, is measured Flu intensity 300 or higher? Cl.Nc1ncnc2c1ncn2CCNCC/N=C/c1ccc(O)cc1O
Response given: true (1)

----------
Recorded IC50 values for a group of compounds are listed next.
molecular target: Beta-secretase 1 (Homo sapiens, UniProt P56817); experiment: Inhibition of BACE 1 (unknown origin) using 500 nM of Rh-EVNLDAEFK-Quencher as substrate after 1 hr by FRET assay
Sequence (P56817 whole entry): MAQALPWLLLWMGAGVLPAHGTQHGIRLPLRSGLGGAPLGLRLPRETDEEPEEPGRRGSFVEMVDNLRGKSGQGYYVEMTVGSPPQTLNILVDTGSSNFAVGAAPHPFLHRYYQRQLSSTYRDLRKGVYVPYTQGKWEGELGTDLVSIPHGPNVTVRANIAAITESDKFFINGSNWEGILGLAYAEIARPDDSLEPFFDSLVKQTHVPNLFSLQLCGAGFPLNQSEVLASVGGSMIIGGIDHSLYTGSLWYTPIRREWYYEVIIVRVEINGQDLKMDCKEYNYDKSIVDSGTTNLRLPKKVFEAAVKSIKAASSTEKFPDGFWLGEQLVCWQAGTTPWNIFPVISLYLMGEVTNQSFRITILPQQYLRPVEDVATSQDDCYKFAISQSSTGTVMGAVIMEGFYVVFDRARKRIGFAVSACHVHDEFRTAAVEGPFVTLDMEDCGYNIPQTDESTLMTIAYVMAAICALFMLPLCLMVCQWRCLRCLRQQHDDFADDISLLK
Note: unit µM is implicit; provide only the numeric part.

smiles_text=Oc1ccc(/C=N/CCn2ccc3ccccc32)c(O)c1 experimental_readout=IC50 value_reported=5.7
smiles_text=Cl.Oc1ccc(/C=N/CCNCCn2cnc3ccccc32)c(O)c1 experimental_readout=IC50 value_reported=18.5
smiles_text=O=C(NCCNc1ccnc2cc(Cl)ccc12)c1cnccn1 experimental_readout=IC50 value_reported=9.9

get_value(item= Cl.Nc1ncnc2c1ncn2CCNCC/N=C/c1ccc(O)cc1O , readout=IC50) returns 42

----------
Recorded Activity values for a group of compounds are listed next.
target: Amyloid-beta precursor protein (Homo sapiens) (UniProt P05067); assay: Inhibition of self-induced amyloid beta (1 to 40) (unknown origin) fibril aggregation assessed as aggregation level at 100 uM measured on day 7 by UV-visible turbidity method; parameters: scale not given: the % may be the effect or the level left
Sequence (P05067 whole entry): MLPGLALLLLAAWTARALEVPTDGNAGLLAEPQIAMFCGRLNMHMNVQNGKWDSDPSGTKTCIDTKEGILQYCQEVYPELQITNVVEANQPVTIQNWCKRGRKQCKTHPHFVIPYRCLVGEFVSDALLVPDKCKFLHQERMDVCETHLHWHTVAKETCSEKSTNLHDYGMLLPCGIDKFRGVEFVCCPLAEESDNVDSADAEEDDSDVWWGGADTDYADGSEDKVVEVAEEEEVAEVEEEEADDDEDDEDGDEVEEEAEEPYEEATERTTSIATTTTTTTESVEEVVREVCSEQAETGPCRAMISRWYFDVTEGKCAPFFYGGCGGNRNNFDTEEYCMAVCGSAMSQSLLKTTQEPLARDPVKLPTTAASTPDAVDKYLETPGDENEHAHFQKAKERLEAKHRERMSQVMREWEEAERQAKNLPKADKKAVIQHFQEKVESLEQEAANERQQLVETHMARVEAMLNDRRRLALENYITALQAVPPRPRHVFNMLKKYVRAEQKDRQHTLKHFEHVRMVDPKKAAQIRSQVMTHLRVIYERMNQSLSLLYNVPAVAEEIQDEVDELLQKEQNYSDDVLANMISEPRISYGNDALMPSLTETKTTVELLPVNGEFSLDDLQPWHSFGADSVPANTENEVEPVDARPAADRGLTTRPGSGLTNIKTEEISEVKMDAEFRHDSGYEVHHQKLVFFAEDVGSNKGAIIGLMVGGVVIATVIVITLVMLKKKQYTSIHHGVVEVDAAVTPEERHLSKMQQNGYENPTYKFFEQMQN
Entry rule: numbers only, all in %.

Example entries and their recorded answers appear below.
compound=Cl.Nc1ncnc2c1ncn2CCNCC/N=C/c1ccc(O)cc1O value_reported=90.9
compound=Oc1ccc(/C=N/CCn2ccc3cccnc32)c(O)c1 value_reported=94
compound="Oc1ccc(/C=C/c2cc(O)cc(O)c2)cc1 [RESVERATROL]" value_reported=75.2
compound=Oc1ccc(/C=N/CCn2ccc3ccccc32)c(O)c1 value_reported=86
compound=O=C(NCCNc1ccnc2cc(Cl)ccc12)c1cnccn1 value_reported=181

// sample Oc1ccccc1/C=N/CCNc1ccnc2cc(Cl)ccc12 , its Activity was 117

Summary for this compound, Cl.Oc1ccc(/C=N/CCNCCn2cnc3ccccc32)c(O)c1 : Activity is 57.5

----------
Each entry below carries its reported Activity.
biological target: Amyloid-beta precursor protein (Homo sapiens) (UniProt P05067); test: Inhibition of self-induced amyloid beta (1 to 40) (unknown origin) fibril aggregation assessed as aggregation level at 100 uM measured on day 3 by UV-visible turbidity method; design: scale not given: the % may be the effect or the level left
I only need the number, in %, no unit after it.

Solved cases (6 shown):
compound=Oc1ccccc1/C=N/CCNc1ccnc2cc(Cl)ccc12 assayed_target="Amyloid-beta precursor protein (Homo sapiens) (UniProt P05067)" experimental_readout=Activity unit_abbrev=% value_reported=137
compound=Oc1ccc(/C=N/CCn2ccc3cccnc32)c(O)c1 assayed_target="Amyloid-beta precursor protein (Homo sapiens) (UniProt P05067)" experimental_readout=Activity unit_abbrev=% value_reported=124
compound=Oc1ccc(/C=N/CCn2ccc3ccccc32)c(O)c1 assayed_target="Amyloid-beta precursor protein (Homo sapiens) (UniProt P05067)" experimental_readout=Activity unit_abbrev=% value_reported=109
compound=Cl.Oc1ccc(/C=N/CCNCCn2cnc3ccccc32)c(O)c1 assayed_target="Amyloid-beta precursor protein (Homo sapiens) (UniProt P05067)" experimental_readout=Activity unit_abbrev=% value_reported=65.6
compound=O=C(NCCNc1ccnc2cc(Cl)ccc12)c1cnccn1 assayed_target="Amyloid-beta precursor protein (Homo sapiens) (UniProt P05067)" experimental_readout=Activity unit_abbrev=% value_reported=125
compound=Cl.Nc1ncnc2c1ncn2CCNCC/N=C/c1ccc(O)cc1O assayed_target="Amyloid-beta precursor protein (Homo sapiens) (UniProt P05067)" experimental_readout=Activity unit_abbrev=% value_reported=98.2

Kindly consider the entry below.
get_value(item= Oc1ccc(/C=C/c2cc(O)cc(O)c2)cc1 [RESVERATROL] , readout=Activity) returns 108
